Cited source: patent US7304127

- tgt: HIV-1LAI envelope gp120 labeled with radioactive iodine (HIV-1 LAI), P03377
- protocol_details: 125I-gp120, peptide array
Mark Criterion not met for counts minus background (counts per 20 min) values under 200, and Criterion met for everything at or above.

[
  {
    "binder": "QAMQVTETLGMTHCCINP (modifications not checked) [CCR5 277-294]",
    "classification": "Criterion not met"
  },
  {
    "binder": "YAAAQWDFGNTMCQLLTG (modifications not checked) [CCR5 89-106]",
    "classification": "Criterion met"
  },
  {
    "binder": "FHCCLNPILYAFLGAKFK (modifications not checked) [CXCR4 293-310]",
    "classification": "Criterion not met"
  },
  {
    "binder": "NPIIYAFVGEKFRNYLLV (modifications not checked) [CCR5 293-310]",
    "classification": "Criterion not met"
  },
  {
    "binder": "ATNSQRPRKLLAEKVVYV (modifications not checked) [CXCR4 141-158]",
    "classification": "Criterion not met"
  },
  {
    "binder": "SLKILSKGKRGGHSSVST (modifications not checked) [CXCR4 325-342]",
    "classification": "Criterion met"
  },
  {
    "binder": "GNFLCKAVHVIYTVNLYS (modifications not checked) [CXCR4 105-122]",
    "classification": "Criterion met"
  }
]
